Target: T1, human IL-36R (human, UniProt Q9HB29 20-575)
T1 sequence (looked up): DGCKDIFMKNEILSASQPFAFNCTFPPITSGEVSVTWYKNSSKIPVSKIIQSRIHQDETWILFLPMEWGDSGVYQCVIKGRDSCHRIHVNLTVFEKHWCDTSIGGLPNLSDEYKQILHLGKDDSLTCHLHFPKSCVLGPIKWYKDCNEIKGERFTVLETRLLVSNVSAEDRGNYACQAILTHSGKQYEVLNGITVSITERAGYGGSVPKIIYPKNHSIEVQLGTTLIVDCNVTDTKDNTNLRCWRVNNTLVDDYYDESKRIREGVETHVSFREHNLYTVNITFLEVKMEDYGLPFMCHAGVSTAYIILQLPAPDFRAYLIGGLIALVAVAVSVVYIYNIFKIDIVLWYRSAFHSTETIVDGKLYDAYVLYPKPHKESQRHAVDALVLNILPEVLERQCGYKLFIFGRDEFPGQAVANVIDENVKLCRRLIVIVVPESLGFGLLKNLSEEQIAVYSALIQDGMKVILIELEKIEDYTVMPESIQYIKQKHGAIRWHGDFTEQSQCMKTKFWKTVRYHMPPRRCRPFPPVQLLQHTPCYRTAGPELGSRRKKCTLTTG
Experiment: cell-based or functional assay
measured-endpoint: IC50 of IL-6 release, NCI/ADR-RES cells stimulated with IL-36β (µg/mL)
Number in µg/mL, nothing else.

IC50 of IL-6 release, NCI/ADR-RES cells stimulated with IL-36β for humanized anti-IL-36R antibody 900513 (antibody, V domains shown, IgG1 (vector with L234A, L235A) and human kappa) VH: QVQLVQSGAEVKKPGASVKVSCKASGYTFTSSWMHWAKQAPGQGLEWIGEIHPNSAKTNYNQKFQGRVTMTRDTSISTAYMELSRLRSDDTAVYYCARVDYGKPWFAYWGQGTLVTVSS VL: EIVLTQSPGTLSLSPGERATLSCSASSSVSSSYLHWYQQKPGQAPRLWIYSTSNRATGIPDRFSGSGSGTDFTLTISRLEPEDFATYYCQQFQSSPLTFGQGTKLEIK is 0.0223
